For each record, write down the corresponding ED50 thymolytic activity, oral route.
# Test system: thymus
# Assay type: in vivo, rat (Wistar, young male)
# test_conditions: rat, in vivo, po, 5760 min
One number for each entry, in mg.

* C[C@]12CCC(=O)C=C1CC[C@@H]1[C@@H]2[C@@H](O)C[C@@]2(C)[C@H]1CC[C@]2(O)C(=O)CO [Hydrocortisone (base), Hydrocortisone, reference compound] | 4
* CC(C)(C)C(=O)SCC(=O)[C@@]1(O)CC[C@H]2[C@@H]3CCC4=CC(=O)C=C[C@]4(C)[C@H]3[C@@H](O)C[C@@]21C [JO 1007] | 9.6
* C[C@@H]1C[C@H]2[C@@H]3CCC4=CC(=O)C=C[C@]4(C)[C@@]3(F)[C@@H](O)C[C@]2(C)[C@@]1(O)C(=O)CO [Dexamethasone (base), Dexamethasone, reference compound] | 0.013

Here are 3 molecules. What values of ED50 thymolytic activity, oral route were reported for them?
1. C[C@]12C=CC(=O)C=C1CC[C@@H]1[C@@H]2[C@@H](O)C[C@@]2(C)[C@H]1CC[C@]2(O)C(=O)CSC(=O)c1ccc(F)cc1 [JO 1014]
2. CC(=O)OCC(=O)[C@@]1(O)CC[C@H]2[C@@H]3CCC4=CC(=O)CC[C@]4(C)[C@H]3[C@@H](O)C[C@@]21C [Hydrocortisone (acetate), Hydrocortisone acetate, reference compound]
3. CC(=O)OCC(=O)[C@@]1(O)[C@H](C)C[C@H]2[C@@H]3CCC4=CC(=O)C=C[C@]4(C)[C@@]3(F)[C@@H](O)C[C@@]21C [Dexamethasone (acetate), Dexamethasone acetate, reference compound]

// result
40
4
0.01

----------
For each record, write down the corresponding ED50 thymolytic activity, sub-cutaneous route.
# Tested on: thymus
# Format: in vivo, rat (Wistar, young male)
# test_conditions: rat, in vivo, 5760 min

Here are 3 compounds. What values of ED50 thymolytic activity, sub-cutaneous route were reported for them?
1. C[C@]12CCC(=O)C=C1CC[C@@H]1[C@@H]2[C@@H](O)C[C@@]2(C)[C@H]1CC[C@]2(O)C(=O)CSC(=O)c1ccc(F)cc1 [JO 1026]
2. CCCCCCC(=O)SCC(=O)[C@@]1(O)CC[C@H]2[C@@H]3CCC4=CC(=O)C=C[C@]4(C)[C@H]3[C@@H](O)C[C@@]21C [JO 1009]
3. C[C@@H]1C[C@H]2[C@@H]3CCC4=CC(=O)C=C[C@]4(C)[C@@]3(F)[C@@H](O)C[C@]2(C)[C@@]1(O)C(=O)CSC(=O)c1ccc(F)cc1 [JO 1013]

// result
["> 40 mg", "8 mg", "0.8 mg"]

Here are 4 compounds. What values of ED50 thymolytic activity, sub-cutaneous route were reported for them?
1. C[C@@H]1C[C@H]2[C@@H]3CCC4=CC(=O)C=C[C@]4(C)[C@@]3(F)[C@@H](O)C[C@]2(C)[C@@]1(O)C(=O)CSC(=O)C(C)(C)C [JO 1008]
2. CC(=O)OCC(=O)[C@@]1(O)[C@H](C)C[C@H]2[C@@H]3CCC4=CC(=O)C=C[C@]4(C)[C@@]3(F)[C@@H](O)C[C@@]21C [Dexamethasone (acetate), Dexamethasone acetate, reference compound]
3. CC(=O)OCC(=O)[C@@]1(O)CC[C@H]2[C@@H]3CCC4=CC(=O)CC[C@]4(C)[C@H]3[C@@H](O)C[C@@]21C [Hydrocortisone (acetate), Hydrocortisone acetate, reference compound]
4. C[C@]12CCC(=O)C=C1CC[C@@H]1[C@@H]2[C@@H](O)C[C@@]2(C)[C@H]1CC[C@]2(O)C(=O)CO [Hydrocortisone (base), Hydrocortisone, reference compound]

// result
1: 0.8 mg; 2: 0.009 mg; 3: 0.68 mg; 4: 1.8 mg

Here are 4 compounds. What values of ED50 thymolytic activity, sub-cutaneous route were reported for them?
1. CC(C)(C)C(=O)SCC(=O)[C@@]1(O)CC[C@H]2[C@@H]3CCC4=CC(=O)C=C[C@]4(C)[C@H]3[C@@H](O)C[C@@]21C [JO 1007]
2. C[C@@H]1C[C@H]2[C@@H]3CCC4=CC(=O)C=C[C@]4(C)[C@@]3(F)[C@@H](O)C[C@]2(C)[C@@]1(O)C(=O)CO [Dexamethasone (base), Dexamethasone, reference compound]
3. CCCCCCC(=O)SCC(=O)[C@@]1(O)[C@H](C)C[C@H]2[C@@H]3CCC4=CC(=O)C=C[C@]4(C)[C@@]3(F)[C@@H](O)C[C@@]21C [JO 1010]
4. C[C@]12C=CC(=O)C=C1CC[C@@H]1[C@@H]2[C@@H](O)C[C@@]2(C)[C@H]1CC[C@]2(O)C(=O)CSC(=O)c1ccc(F)cc1 [JO 1014]

// result
30.4 mg
10.02 mg
0.4 mg
> 40 mg
